- MEASURED ON: c-Src SH2
- METHOD: SH2 binding enrichment of the phosphorylated peptide, bacterial display (enrichment ratio); higher = better substrate or ligand; peptides without Tyr show the background;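 further: peptide library displayed on the E. coli surface as eCPX fusions, selected cells deep-sequenced, score is each peptide's frequency after selection divided by its frequency in the input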
Below, each entry is listed alongside its reported SH2 binding enrichment.
Number, no unit, nothing else.

Example sequences with recorded SH2 binding enrichment:
RSPLRYTSILT [OR51B6_Y130] :: 2.87
GPIIRYDLGGA [CYP11B1_Y81_F79I] :: 0.495

Send back c-Src SH2 SH2 binding enrichment of ANNEFYFQVCA only.
0.337

Send back c-Src SH2 SH2 binding enrichment of SKDQIYPMKLK [RANBP17_Y823] only.
0.446

Send back c-Src SH2 SH2 binding enrichment of DFDNLYYWDQD [ERBB2_Y1221_A1216D] only.
0.453

Send back c-Src SH2 SH2 binding enrichment of LADMNYVHCDL [EPHB2_Y742_R745C] only.
0.684

Send back c-Src SH2 SH2 binding enrichment of IFRASYFRKGG [ALK_Y1282_YF] only.
0.461

Send back c-Src SH2 SH2 binding enrichment of SLGSPYGQPPR [PDLIM4_Y137] only.
0.501

Send back c-Src SH2 SH2 binding enrichment of DEEPPHRGPFC [SASH1_Y551_Y551H] only.
0.744

Send back c-Src SH2 SH2 binding enrichment of DRLASSLDKVR [KRT10_Y160_Y160S] only.
0.422

Recorded values, source the supplement of paper PMC10065799.
